Target: T1, PHD of UHRF1 (residues 307–366) (human, UniProt Q96T88 307-366)
T1 chain: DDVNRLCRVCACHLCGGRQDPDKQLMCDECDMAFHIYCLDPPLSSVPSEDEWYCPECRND
Experiment: ITC; in presence of SRA (PHD/SRA 1:2)
ATTRIBUTE_MEASURED: Kd (µM)
Answers are plain numbers, in µM.

Request: # Kd lookup, item ARTKQTARKSTGGKAPR [H3 peptide (1–17)]
Response: 4.64
